Examples of binders with documented MFI follow.
study.target: T1, LAIR1 on reporter cells (UniProt Q6GTX8 22-165, limits assumed)
T1 sequence (looked up): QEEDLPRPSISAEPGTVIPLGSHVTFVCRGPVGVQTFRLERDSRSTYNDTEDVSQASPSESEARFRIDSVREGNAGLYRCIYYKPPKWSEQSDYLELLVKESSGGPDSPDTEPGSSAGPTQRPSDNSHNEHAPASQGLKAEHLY
protocol: flow cytometry, reporter cells
Write no unit; give the number alone.

The cases that follow already have their MFI on record.
binder: B2-17 (antibody, V domains shown, also called B2-17_HC; B2-17_LC) VH: EVQLLDSGPRLLKPSETLSLTCGVSGVSTSSTHWWSWVRQTPGKGLEWIGEILHNGNTNSNPSLKSRVSMSIDKSRNQFSLQLKSMTAADTAVYYCASASPNWGASGAFDAWAQGTMVTVSS VL: QSVLTQPPSASATPGQRVTISCSGSSSNIGSNPVNWYQQVPGMAPELVMYSDNQRPSGVPDRFSGSNSGTSASLAISGLQSEDEADYYCSTWDDSLNGLVFGTGTKVTVL
MFI: 23
//
binder: B2-16 (antibody, V domains shown, also called B2-16_HC; B2-16_LC) VH: QVQLVQSGAEVKKPGSSVKVSCKASGGTFSSYAISWVRQAPGQGLEWMGGIIPIFGTANYAQKFQGRVTITADESTSTAYMELSSLRSEDTAVYYCASGIIPDNPYGMDVWGQGTMVSVSS VL: DIVMTQSPLSLPVTLGQPASISCTSSQSLVYSDGNTYLNWFHQRPGQSPRRLFYKVSNRASGVPDRFSGSGSGTDFTLKISRVEAEDLGVYYCMQGTHWPVTFGQGTRLEIK
MFI: 24
//
binder: B2-7 (antibody, V domains shown, also called B2-7_HC; B2-7_LC) VH: EVQLVESGGGVVQPGRSLRLSCAASGFTISSYGMHWVRQAPGKGLEWVAVISYDGSNKYYADSVKGRFTISRDNSKNTLYLQMNSLRVEDTAVYYCAKDLLLRYFDWSPKYYYNGMDVWGQGTMVTVSS VL: QSVLTQPPSVSVAPGKTARITCGGNNIGSKSVHWYQQKPGQAPVLVVYDDSDRPSGIPERFSGSNSGNTATLTISRVEAGDEADYYCQVWDSSSDHPGVFGTGTKVTVL
MFI: 23

Here's the next entry for you.
Give its MFI value. Item: B2-15 (antibody, V domains shown, also called B-15; B2-15_HC) VH: EVQLVQSGAEVKKSGASVKVSCKSSGYTFTNYGISWVRQAPGQGLEWMGWISGDAGDTKFAQKFQGRVTMTTDTSTTTTYMELRSLRSDDTAVYYCARDGEYIPMFRGFDNYYGLDVWGQGTLVSVSS VL: QSVLTQPPSASATPGQRVTISCSGRNANIGSNPVNWYQQLPGTAPRLVMYSNNQRPSGVPDRFSGSKSGTSASLAISGLQSEDEADYYCEGWDDSLNGYVFGTGTKVTVL
22
